# ASSAY INFO: Cytotoxicity against HEK293T cells assessed as growth inhibition at 20 uM after 48 hrs by CCK8 assay relative to control
# Format: cell-based, HEK-293T
# RECORDED CONDITIONS: human, HEK293T cells; read-out: GI
For each entry below, report its inhibition at 48 h, 20 µM value.
Give the value in % but do not write % after it.

Form: molecule = N#C/C(=C\c1ccccc1OS(=O)(=O)c1ccc(F)cc1)C(=O)Nc1nnc(Cc2ccccc2)s1 ; inhibition at 48 h, 20 µM = 6

Form: molecule = Cc1ccc(Cc2nnc(NC(=O)/C(C#N)=C/c3ccccc3OS(=O)(=O)c3ccc([N+](=O)[O-])cc3)s2)cc1 ; inhibition at 48 h, 20 µM = 9

Form: molecule = Cc1ccc(S(=O)(=O)Oc2ccccc2/C=C(\C#N)C(=O)Nc2nnc(Cc3cccc(F)c3)s2)cc1 ; inhibition at 48 h, 20 µM = 9

Form: molecule = Cc1ccc(S(=O)(=O)Oc2cccc(/C=C(\C#N)C(=O)Nc3nnc(C)s3)c2)cc1 ; inhibition at 48 h, 20 µM = 27

Form: molecule = Cc1ccc(S(=O)(=O)Oc2ccccc2/C=C(\C#N)C(=O)Nc2nnc(Cc3ccccc3)s2)cc1 ; inhibition at 48 h, 20 µM = 15

Form: molecule = N#C/C(=C\c1ccccc1OS(=O)(=O)c1ccc([N+](=O)[O-])cc1)C(=O)Nc1nnc(Cc2ccc(Cl)cc2)s1 ; inhibition at 48 h, 20 µM = 19

Form: molecule = N#C/C(=C\c1ccccc1OS(=O)(=O)c1ccc(F)cc1)C(=O)Nc1nnc(Cc2cccc(F)c2)s1 ; inhibition at 48 h, 20 µM = 17

Form: molecule = Cc1nnc(NC(=O)/C(C#N)=C/c2cccc(OS(C)(=O)=O)c2)s1 ; inhibition at 48 h, 20 µM = 20

====

# Tested on: HL-60
# ASSAY INFO: Antiproliferative activity against human HL60 cells assessed as growth inhibition after 48 hrs by CCK-8 assay
# Assay type: functional, cell-based
# RECORDED CONDITIONS: HL-60, 48 h
For each entry below, report its IC50 value.
Give the value in µM but do not write µM after it.

Form: compound = COc1ccc(Cc2nnc(NC(=O)/C(C#N)=C/c3ccccc3OS(=O)(=O)c3ccc([N+](=O)[O-])cc3)s2)cc1 ; IC50 = 10.9

Form: compound = Cc1ccc(S(=O)(=O)Oc2cccc(/C=C(\C#N)C(=O)Nc3nnc(-c4cccs4)s3)c2)cc1 ; IC50 = 8.75

Form: compound = N#C/C(=C\c1ccccc1OS(=O)(=O)c1ccc(OC(F)(F)F)cc1)C(=O)Nc1nnc(-c2cc3ccccc3[nH]2)s1 ; IC50 = 11.1

Form: compound = COc1ccc(S(=O)(=O)Oc2ccccc2/C=C(\C#N)C(=O)Nc2nnc(Cc3ccc(Cl)cc3)s2)cc1 ; IC50 = 4.36

Form: compound = COc1ccc(S(=O)(=O)Nc2cccc(/C=C(\C#N)C(=O)Nc3nnc(-c4cccs4)s3)c2)cc1 ; IC50 = 8.37

Form: compound = N#C/C(=C\c1ccccc1OS(=O)(=O)c1ccc(C(F)(F)F)cc1)C(=O)Nc1nnc(-c2cccs2)s1 ; IC50 = 17.5

Form: compound = COc1ccc(S(=O)(=O)Oc2ccccc2/C=C(\C#N)C(=O)Nc2nnc(Cc3ccc(C)cc3)s2)cc1 ; IC50 = 4.08

Form: compound = COc1ccc(S(=O)(=O)Oc2ccccc2/C=C(\C#N)C(=O)Nc2nnc(Cc3ccccc3)s2)cc1 ; IC50 = 3.17
